Assay: yeast display, Sf9 membrane polyspecificity reagent, FACS + sequencing; frameworks hold sequencing errors
RESULT TYPE: polyreactivity (PSR sort gate)

>>> result("QVQLVESGGGLVQAGGSLRLSCAASGSTFYSYAMGWSRQAPGKERELVAAITRGGRTYYADSVKGRFTISRDNAKNTVYLQMNSLKPEDTAVYYCNVVTKFTGRGYDYWGQGTQVTVSS")
"high polyreactivity"
>>> result("QVQLVESGGGLVQAGGSLRLSSAASGSIFVRNAMGWYRQAPGKERELVAAITSRVGSTYYADSVKGRFTISRDNAKNTVYLQMNSLKPEDTAVYYCAVVFAKRAWSRYDYWGQGTQVTVSS")
"high polyreactivity"
>>> result("QFQLVESGGGLVQAGGSLRLSCAASGGTFGWNAMGLYRQAPGKERELVAAITSSGGDTYYADSVKGRFTISRDNAKNTVYLQMNSLKPEDTAVYYCAAEDGRQYGYWGQGTQVTVSS")
"low polyreactivity"
>>> result("QVQLVESGGGLVQAGGSLRLSCAASGRTFFSYAMGWYRQAPGKEMELVAAISGSGGSTYYADSVKGRFTISRDNAKNTVYLQMNSLKPEDTAVYYCNAYQTTRGLDYWGQGTQVTVSS")
"low polyreactivity"
>>> result("QVQLVESGGGLVQAGGSLRLTCAASGSTYTGYAMGWYRQAPGKERELVAAISISGGRTFYADSVKGRFTISRDNAKNTVYLQMNSLKPEDTAVYYCAAYLRGSKYSFDYWGQGTQVTVSS")
"high polyreactivity"

Query: Find the measured polyreactivity (PSR sort gate) of QVQLVESGGGLVQAGGSLRLSCAASGRTFYSYAMGWYRQAPGKERELVAAMTSDGGTYYADSVKGRFTISRDNAKNTVYLQMNSLKPEDTAVYYCAAELYYWYYYWGQGTKVTVSS and report it.
Response: low polyreactivity

Query: Find the measured polyreactivity (PSR sort gate) of QVQLVESGGGLVQAGGSLRLSCAASGRTFHYYAMGWYRQAPGKERELVAAITRGGNTYYADSVKGRFTISRDNAKNTVYLQMNSLKPEDTAVYYCAKTAAVNGGYDYWGQGTQVTVSS and report it.
Response: high polyreactivity

Query: Find the measured polyreactivity (PSR sort gate) of QVHLVESGGGLVQAGGSLRLSCAASGSIFNLYGMGWYRQAPGKERELVASITSSGTRTYYADSVKGRFTISRDNAKNTVYLQMNSLKPEDTAVYYCAAGSYLRSNRGYWGQGTQVTVSS and report it.
Response: high polyreactivity

Query: Find the measured polyreactivity (PSR sort gate) of QVQLVESGGGLVQAGGSLRLSCAASGSTFYSYGMGWYRPAPGKERELVAAITKRVGRTYYADSVKGRFTISRDNAKNTVYLQMNSLKPEDTAVYYCAARAWTRSVPYGFYYWGQGTQVTVSS and report it.
Response: high polyreactivity

Query: Find the measured polyreactivity (PSR sort gate) of QVQLVESGGGLVQAGGSLRLSCAASGSIFGNAMGWYRPAPGKERELVAAISRRGGRTYYADSVKGRFTISRDNAKNTVYLQMNSLKPEDTAVYYCANTAKTWGWWLRGYGYWGQGTQVTVSS and report it.
Response: high polyreactivity

Query: Find the measured polyreactivity (PSR sort gate) of QVQLVESGGGLVQAGGSLRLSCAASGSIFLVNAKGWYRQAPGKERELVAAITWIGGSTYYADSVKGRFTISRDNAKNTVYLQMNSLKPEDTAVYYCAAYGKRLGGGGYYWGQGTQVTVSS and report it.
Response: high polyreactivity

---

Test: yeast display, Sf9 membrane polyspecificity reagent, FACS + sequencing; frameworks hold sequencing errors
RESULT TYPE: polyreactivity (PSR sort gate)

>>> result("QVQLVESGGGLVQAGGSLRLSCAASGSIFDWNAMGWYRQAPGKERELVAAISGTGGTKYADSVKGRFTISRDNAKNTVYLQMNSLKPEDTAVYYCAVGLVPLRDGWHFYYEFDSWGQGTQVTVSS")
"low polyreactivity"
>>> result("QVQHVESGGCLVQAGGSLRLSCAASGSIFYRYAMGWYRQGPGKESQLVAAIRRGGSTNYADSVKGRFTISRDNAKYTVSLQMNSLKPEDTAVYYCAAGRFTYAAQSYEYWGQGTQVTVSS")
"high polyreactivity"
>>> result("QVQLVESGGGLVQAGGSLRLSCAASGSIVSGYAMRWYRQAPGKQRELVAAISRGGSTNYADSVKGRFTISRDNAKNTVYLQMNSLKPEDTAVYYCANTPTKYHYAFGYWGQCTQVTVSS")
"low polyreactivity"
>>> result("QVHLVESGGGLVQAGGSLRLSCAASGSILLWNTMGWYRQAPGKERELVADIRLSASSTYYADSVKGRFTISRDNAKNTVYLQMNSLKPEDTAVYYCAADEYTPEYCQGYDYWGQGTQVTVSS")
"low polyreactivity"

Query: Find the measured polyreactivity (PSR sort gate) of QVQLVESGGGLVQAGGSLRLSCAASGSTFDFNAMGWYRQAPGKERELVAAITYSAGSTYSADSVKGRFTISRDNAQNTVDLQMNSLKPEDTAVYYCAAEDVYPGSIDMDDWGQGTQVTVSS and report it.
Response: low polyreactivity

Query: Find the measured polyreactivity (PSR sort gate) of QVQLVESGGGLVQAGGSLRLSCAASGRILTGYAMGWYRQAPGKARELVAAISNDTDSTHYADSVKGRFTISRDNAKNTVYLQMNSLKPEDTAVYYCATDAPLQKRWRRFDYWGQGTQVTVSS and report it.
Response: low polyreactivity

Query: Find the measured polyreactivity (PSR sort gate) of QVQLVESGGGLVQAGGSLRLSCAASGSNFFYYVMGWYRQAPGKERERVAAITRSTGSTYYADSVKGRFTISRDNAKNTVYLQMNSLIPEDTAVYSCAAEGPKWYYSGAFDYWGQGTQVTVSS and report it.
Response: low polyreactivity

Query: Find the measured polyreactivity (PSR sort gate) of QVQLVESGGGLVQAGGSLRLSCAASGSIFVNNAMGWYRQAPGKERELVAAISSRSSRTFYADSVKWRFTISRDNAKNTVYLQMNCLKPEDTAVYSCAVKKRAPDGDYWGQGTQVTVSS and report it.
Response: high polyreactivity

Query: Find the measured polyreactivity (PSR sort gate) of QVQLVESGGGLVQAGGSLRLSCAASGLIFDRNAMGWYRQAPGKERELVAAITYSGSRTYYADSVKGRFTISRDNAKNTVYLQMNSLKPEDTAVYYCAARHRYSAGTEYNYWGQGTQVTVSS and report it.
Response: high polyreactivity

Query: Find the measured polyreactivity (PSR sort gate) of QVQLVESGGGLVQAGGSLRLSCAASGSTFTTYAMGWYRQAPGKERELVAAISNNGGRTFYADSVKGRFTISRDNAKNTVYLQMNSLKPEDTAVYYCAAEYGLYAPGYYYWGQGTQVTVSS and report it.
Response: low polyreactivity

Query: Find the measured polyreactivity (PSR sort gate) of QVQLVESGGGLVQAGGSLRLSCAASGSTLYYNAMGWYRQAPGKESELVAAISWSGGSTYYADSVKGRFTISRDNAKNTVYLQMNSLKPEDTAVYYCAADQSTVLDVGSWGQGTQVTVSS and report it.
Response: low polyreactivity

---

Experiment: yeast display, Sf9 membrane polyspecificity reagent, FACS + sequencing; frameworks hold sequencing errors
RESULT TYPE: polyreactivity (PSR sort gate)

>>> result("QVQLVESGGGLVQAGGSLRLSCAASGTIFTVYALGWYRQPPGKERELVAGISSGAGTTYADSVKGRFTISRDNAKNTVYLQMNSMKPEDTAVYYCAAYTWDTDHYWYGYVPYDYWGQGTQVTVSS")
"low polyreactivity"
>>> result("QVQLVESGGGLVQAGGSLRLSCAASGFIFVFNTMGWYRQAPGKERELVAAISVSGDSTYADSVKGRFTISRDNAKNTVYLQMNSLKPEDTAVYYCNAGSTELGWTWELDYWGQGTQVNVSS")
"high polyreactivity"
>>> result("QGQLVESGAGLVQAGGSLRLSCAASGITLHGYVMGWYRQAPGKETELVAAITSSGGRTYYADSVKGRFTISRDNAKNTVYLQMNRLKPVDTAVYYCAARIYYYAFSGYYWGQGTQVTVSS")
"high polyreactivity"
>>> result("QVQLVESGGGLVQAGGSLRLSCAASGLTFWEYAMGWYRQAPGKERELVAAITWGGNTYYADSVKGRFTISRDNAKNTVYLQMNSLKPEDTAVYYCAARGYYLTGGFRRYYYWGQGTQVTVSS")
"high polyreactivity"
>>> result("QVQLVESGGGLVQAGGSLRLSCAASGSIFPYYAMGWYRQAPGKERELVASISRSVGSTFYADSVKGRFTISRDNAKNTVYLQMNSLKPEDTAVYYCAVRYFAQFGDYDYWGQGTQVTVSS")
"high polyreactivity"
>>> result("QVQLVESGGGLVQAGGSLRLSCAASGSIFGPYAMGWYRQAPGKERELVATITSGGRTYYADSVKGRFTISRDNAKNTVYFQLNSLKPEDTAVYYCAAAGKGRYHVRSTMDYWGQGTQVTVSS")
"high polyreactivity"
>>> result("QVQLVDSGGVLVQAVGSLRLSCAASGLIFYSNAMGWYRQAPGKERELVATISWSGGSTYYADSVKGRFTSSRDNAKNTVYLQMNSLTPEDTAVYYCAAVTHPAWAVEYDYWGQGTQVTVSS")
"high polyreactivity"
>>> result("QVQLVESGGVLVQAGGSLRLSCAASGSIFKLNAMGWYRQAPGKERELVAVINKSGGRTFYADSVKGRFTISRDNAKNTVYLQMNRLKPEDTAVYYCNAVSNLAVNLDYWGQGTQVTVSS")
"high polyreactivity"
>>> result("QVQLVESVGGLVQAGGSLRLSCAASGRTFTGNAMGWYRQAPGKERELVAAISQRGGRTNYADSVKGRFTISRDNAKNTVYLQMNSLKPEDTAVYYCAADQSYPKRLPSFEYWGQGTQVTVSS")
"low polyreactivity"
>>> result("QVQLVESGGGLVQAGRSLRLSCAASVYILYHNAMGWYRQAPGKERELVAAISYSGGRTYYADSVKGRFTISRDNAKNTVYLQMNSLKPEDTSVYYCNALSVWRTGRGQEFDYWGQGTQVTVSS")
"high polyreactivity"

# ---- query sequence ----
Query: Find the measured polyreactivity (PSR sort gate) of QVQLVESGVGLVQAGGSLRLSCAASGIIFYEYAMGWNRQAPWKERELVATITSGGSTNYADSVKGRFTISRDNAKNTVYLQMNSLKPEDTAVYYCNADWWWGYGYWGQGTQVTVSS and report it.
Response: low polyreactivity

The reported measurements were obtained from the nanobody polyreactivity screen of Harvey et al. (2022).
